Overview of recorded glycan array binding signal (z-score) for various binders
# targetSystem: Gal(b1-3)GlcNAc(b1-3)GalNAc
# experimentDescription: glycan array binding signal (z-score within array); higher = stronger binding
# conditionDescription: glycan notation: IUPAC condensed, linker removed
About 410 targets per protein were measured; listed, in parts, are those with the strongest signals and a random draw of the rest.
Enter the number alone.

Below are worked cases with known answers.
{"binder": "YASPKCFRYPNGVLACT [Odorranalectin (Odorrana grahami), B3TFE9_RANGR]", "glycan array binding signal (z-score)": -0.188}
{"binder": "AT1G15820(NC) (Arabidopsis thaliana) (protein) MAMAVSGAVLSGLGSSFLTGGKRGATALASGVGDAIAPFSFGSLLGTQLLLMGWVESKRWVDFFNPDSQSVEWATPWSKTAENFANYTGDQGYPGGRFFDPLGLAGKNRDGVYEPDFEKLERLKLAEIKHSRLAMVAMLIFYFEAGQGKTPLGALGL", "glycan array binding signal (z-score)": -0.541}
{"binder": "ASAL (Allium sativum), P83886 (protein) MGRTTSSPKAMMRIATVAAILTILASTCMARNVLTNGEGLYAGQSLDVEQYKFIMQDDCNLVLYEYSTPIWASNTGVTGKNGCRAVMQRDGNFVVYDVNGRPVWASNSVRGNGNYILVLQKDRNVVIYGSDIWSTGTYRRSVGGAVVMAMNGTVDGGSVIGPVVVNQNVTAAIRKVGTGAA", "glycan array binding signal (z-score)": -0.178}

The binder listed as SynCAM (Mus musculus) (protein) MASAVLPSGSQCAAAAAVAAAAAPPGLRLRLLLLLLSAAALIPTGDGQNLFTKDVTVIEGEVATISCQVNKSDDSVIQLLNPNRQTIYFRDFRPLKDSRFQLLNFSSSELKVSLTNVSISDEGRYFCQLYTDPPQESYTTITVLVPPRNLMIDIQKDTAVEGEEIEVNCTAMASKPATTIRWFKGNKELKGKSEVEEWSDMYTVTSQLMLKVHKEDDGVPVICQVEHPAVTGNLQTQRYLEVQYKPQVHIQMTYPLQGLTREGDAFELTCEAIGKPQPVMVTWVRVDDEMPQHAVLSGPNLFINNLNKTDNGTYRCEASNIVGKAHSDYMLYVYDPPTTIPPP has a reported glycan array binding signal (z-score) of 0.053

The binder listed as RVL (Remusatia vivipara), B5LYJ9 (protein) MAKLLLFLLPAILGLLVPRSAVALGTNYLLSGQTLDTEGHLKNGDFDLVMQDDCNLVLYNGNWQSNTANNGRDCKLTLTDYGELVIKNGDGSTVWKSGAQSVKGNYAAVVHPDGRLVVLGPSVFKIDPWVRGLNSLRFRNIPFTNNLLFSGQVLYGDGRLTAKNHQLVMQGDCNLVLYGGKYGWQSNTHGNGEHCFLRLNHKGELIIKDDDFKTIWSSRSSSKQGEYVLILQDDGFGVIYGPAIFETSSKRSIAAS has a reported glycan array binding signal (z-score) of -0.055
